Assayed target: T1, recombinant extracellular domain of human BAFF-R (Homo sapiens, UniProt Q96RJ3)
T1 construct: The antigen was commercial, recombinant extracellular domain of human BAFF-R; purchased
Test name: Biacore analysis of binding affinity of humanized BAFF-R antibody variants
Text: The chimeric antibody, clone 90, was humanized while retaining its binding specificity and cytotoxic effects. Through computational analysis of the CDRs and predicted structure, three variants of the heavy and three variants of the light chain were produced with varying degrees of likeness to human antibodies. A total of nine combinational variants was constructed from the humanized heavy and light chains. The chimeric anti-BAFF-R antibody C90 was humanized with several variants. […]

{"Molecule": "Humanized HC1 + LC1 (antibody, V domains shown) VH: QVQLQESGPGLVKPSQTLSLTCTVSGDSITSGYWNWIRQHPGKGLEYIGYISYSGSTYYNPSLKSRVTISRDTSKNQFSLKLSSVTAADTAVYYCASPNYPFYAMDYWGQGTLVTVSS VL: EIVLTQSPATLSLSPGERATLSCRASESVDNYGISFLNWFQQKPGQAPRLLIYAASNRATGIPARFSGSGSGTDFTLTISSLEPEDFAVYYCQQSKEVPWTFGGGTKVEIKRTV", "Uom": "M⁻¹ s⁻¹", "kon": 610000}
{"Molecule": "Humanized HC1 + LC3: humanized C90 variant, heavy chain variant 1 with light chain variant 3 (antibody, V domains shown) VH: QVQLQESGPGLVKPSQTLSLTCTVSGDSITSGYWNWIRQHPGKGLEYIGYISYSGSTYYNPSLKSRVTISRDTSKNQFSLKLSSVTAADTAVYYCASPNYPFYAMDYWGQGTLVTVSS VL: DIVMTQSPSSLSASVGDRVTITCRASESVDNYGISFMNWFQQKPGKAPKLLIYAASNLGSGVPSRFSGSGSGTDFTLTISSLQPEDFATYYCQQSKEVPWTFGQGTKVEIKRTV", "Uom": "M⁻¹ s⁻¹", "kon": 410000}
{"Molecule": "Humanized HC3 + LC2: humanized C90 variant, heavy chain variant 3 with light chain variant 2 (antibody, V domains shown) VH: EVQLQESGPGLVKPSETLSLTCSVSGDSITSGYWNWIRQPPGKGLEYIGYISYSGSTYYNPSLKSRVTISRDTSKNQYSLRLSSVTAADTALYYCASPNYPFYAMDYWGQGTRVTVSS VL: DIVLTQSPATLSLSPGERATLSCRASESVDNYGISFMNWFQQKPGQAPRLLIYAASNRATGIPARFSGSGSGTDFTLTISSLEPEDFAVYYCQQSKEVPWTFGGGTKVEIKRTV", "Uom": "M⁻¹ s⁻¹", "kon": "1.2e+06"}
{"Molecule": "Humanized HC3 + LC3: humanized C90 variant, heavy chain variant 3 with light chain variant 3 (antibody, V domains shown) VH: EVQLQESGPGLVKPSETLSLTCSVSGDSITSGYWNWIRQPPGKGLEYIGYISYSGSTYYNPSLKSRVTISRDTSKNQYSLRLSSVTAADTALYYCASPNYPFYAMDYWGQGTRVTVSS VL: DIVMTQSPSSLSASVGDRVTITCRASESVDNYGISFMNWFQQKPGKAPKLLIYAASNLGSGVPSRFSGSGSGTDFTLTISSLQPEDFATYYCQQSKEVPWTFGQGTKVEIKRTV", "Uom": "M⁻¹ s⁻¹", "kon": 680000}
